system: PC-3 cells; assay: Growth inhibition of PC-3 cells derived from lung cancer, 72 h, methylene blue staining; format: cell-based
IC50 PC-3 listing for selected compounds.

>  <Compound>
CC(C)(CO)[C@@H](O)C(=O)[O-].CC(C)(CO)[C@@H](O)C(=O)[O-].NCC1(N)CCCCC1.[Pt+2]

>  <Experimental target>
PC-3 cells

>  <IC50 PC-3>
0.73 µg/mL

$$$$
>  <Compound>
N.N.[Cl][Pt][Cl] [cis-Platin, cis-dichlorodiammine platinum (II), reference compound]

>  <Experimental target>
PC-3 cells

>  <IC50 PC-3>
0.40 µg/mL

$$$$
>  <Compound>
CC(C)(O)C(=O)[O-].CC(C)(O)C(=O)[O-].N[C@@H]1CCCC[C@H]1N.[Pt+2] (relative stereo)

>  <Experimental target>
PC-3 cells

>  <IC50 PC-3>
1.57 µg/mL

$$$$
>  <Compound>
CC(C)(CO)C(=O)[O-].CC(C)(CO)C(=O)[O-].N[C@@H]1CCCC[C@H]1N.[Pt+2] (relative stereo)

>  <Experimental target>
PC-3 cells

>  <IC50 PC-3>
0.50 µg/mL

$$$$
>  <Compound>
CC(O)(CCO)CC(=O)[O-].CC(O)(CCO)CC(=O)[O-].NCC1(N)CCCCC1.[Pt+2] (stereo not drawn)

>  <Experimental target>
PC-3 cells

>  <IC50 PC-3>
0.80 µg/mL

$$$$
>  <Compound>
CC(O)(CCO)CC(=O)[O-].CC(O)(CCO)CC(=O)[O-].N[C@@H]1CCCC[C@H]1N.[Pt+2] (relative stereo)

>  <Experimental target>
PC-3 cells

>  <IC50 PC-3>
0.76 µg/mL

$$$$
>  <Compound>
CC(C)(CO)C(O)C(=O)[O-].CC(C)(CO)C(O)C(=O)[O-].CC(CN)CCN.[Pt+2] (stereo not drawn)

>  <Experimental target>
PC-3 cells

>  <IC50 PC-3>
0.40 µg/mL

$$$$
>  <Compound>
CC(C)(CO)C([O-])C(=O)[O-].C[C@@H](CN)CCN.[Pt+2] (stereo in doubt)

>  <Experimental target>
PC-3 cells

>  <IC50 PC-3>
0.53 µg/mL

$$$$
>  <Compound>
CC(C)(CO)C(=O)[O-].CC(C)(CO)C(=O)[O-].C[C@@H](CN)CCN.[Pt+2] (stereo in doubt)

>  <Experimental target>
PC-3 cells

>  <IC50 PC-3>
0.35 µg/mL

$$$$
>  <Compound>
CC(C)(CO)[C@@H](O)C(=O)NCCC(=O)[O-].CC(C)(CO)[C@@H](O)C(=O)NCCC(=O)[O-].N[C@@H]1CCCC[C@H]1N.[Pt+2] (stereo in doubt)

>  <Experimental target>
PC-3 cells

>  <IC50 PC-3>
0.60 µg/mL

$$$$
>  <Compound>
CC(C)(CO)C(O)C(=O)[O-].CC(C)(CO)C(O)C(=O)[O-].NC1CCCCC1N.[Pt+2] (stereo not drawn)

>  <Experimental target>
PC-3 cells

>  <IC50 PC-3>
0.45 µg/mL

$$$$
>  <Compound>
CC(C)(CO)C([O-])C(=O)[O-].NC1CCCCC1N.[Pt+2] (stereo not drawn)

>  <Experimental target>
PC-3 cells

>  <IC50 PC-3>
2.03 µg/mL

$$$$

Recorded values, source patent US5130450A.
